Assay: Cytotoxicity against human HepG2 cells assessed as reduction in cell viability incubated for 72 hrs by MTT assay
Assay type: toxicity, cell-based
propertyName: CC50 at 72 h (µM)
# value in µM; strip the unit string

Query Brc1ccc(Nc2nc3ccccc3nc2Nc2ccc(Br)cc2)cc1 yields CC50 at 72 h of 4.64

====

System: Schistosoma mansoni
Test: Antischistosomal activity against Schistosoma mansoni Puerto-Rican schistosomula assessed as phenotypic changes measured after 72 hrs
Format: functional, organism-based
propertyName: pEC50
// pEC50: -log10(molar conc.)

In plain terms, Brc1ccc(Nc2nc3ccccc3nc2Nc2ccc(Br)cc2)cc1 has a documented pEC50 of 5.44

====

Experiment: Selectivity index, ratio of CC50 for human HepG2 cells measured after 72 hrs to EC50 for antischistosomal activity against Schistosoma mansoni Puerto-Rican schistosomula measured after 72 hrs
Assay type: toxicity
Settings: read-out: Ratio CC50/EC50
propertyName: selectivity ratio at 72 h
Lab note: record just the number, no unit beside it.

// sample Brc1ccc(Nc2nc3ccccc3nc2Nc2ccc(Br)cc2)cc1 , its selectivity ratio at 72 h was 1.9

The reported numbers originate from ChEMBL document CHEMBL5154639.
